target: trypsin (Homo sapiens, UniProt P07477+P07478+P35030); experiment: Stability of compound assessed as trypsin (unknown origin)-mediated compound degradation measured upto 6 hrs by RP-HPLC analysis; type: ADME, protein assay; conditions: trypsin (enzyme solution), read-out: Drug degradation
Where a SMILES comes first, the peptide text is derived from it. The star is where a group is joined. Palmitoyl = CCCCCCCCCCCCCCCC(=O)*; Lauroyl = CCCCCCCCCCCC(=O)*; Octanoyl = CCCCCCCC(=O)*; Butyryl = CCCC(=O)*
Measured metabolised at 6 h, listed per entry for reference.

{"Molecule": "CCCCCCCCCCCCCCCC(=O)N[C@@H](CCCCN)C(=O)N[C@@H](Cc1c[nH]c2ccccc12)C(=O)N[C@@H](CCCCN)C(=O)N[C@@H](CC(C)C)C(=O)N[C@@H](Cc1ccccc1)C(=O)N[C@@H](CCCCN)C(=O)N[C@@H](CCCCN)C(=O)N[C@H](C(=O)NCC(=O)N[C@@H](C)C(=O)N[C@H](C(=O)N[C@@H](CC(C)C)C(=O)N[C@@H](CCCCN)C(=O)N[C@H](C(=O)N[C@@H](CC(C)C)C(N)=O)C(C)C)C(C)C)[C@@H](C)CC (Palmitoyl-KWKLFKKIGAVLKVL-NH2)", "Unit Abbreviation": "%", "metabolised at 6 h": 8.7}
{"Molecule": "CCCCCCCCCCCC(=O)N[C@@H](CCCCN)C(=O)N[C@@H](Cc1c[nH]c2ccccc12)C(=O)N[C@@H](CCCCN)C(=O)N[C@@H](CC(C)C)C(=O)N[C@@H](Cc1ccccc1)C(=O)N[C@@H](CCCCN)C(=O)N[C@@H](CCCCN)C(=O)N[C@H](C(=O)NCC(=O)N[C@@H](C)C(=O)N[C@H](C(=O)N[C@@H](CC(C)C)C(=O)N[C@@H](CCCCN)C(=O)N[C@H](C(=O)N[C@@H](CC(C)C)C(N)=O)C(C)C)C(C)C)[C@@H](C)CC (Lauroyl-KWKLFKKIGAVLKVL-NH2)", "Unit Abbreviation": "%", "metabolised at 6 h": 18.9}
{"Molecule": "CCCCCCCC(=O)N[C@@H](CCCCN)C(=O)N[C@@H](Cc1c[nH]c2ccccc12)C(=O)N[C@@H](CCCCN)C(=O)N[C@@H](CC(C)C)C(=O)N[C@@H](Cc1ccccc1)C(=O)N[C@@H](CCCCN)C(=O)N[C@@H](CCCCN)C(=O)N[C@H](C(=O)NCC(=O)N[C@@H](C)C(=O)N[C@H](C(=O)N[C@@H](CC(C)C)C(=O)N[C@@H](CCCCN)C(=O)N[C@H](C(=O)N[C@@H](CC(C)C)C(N)=O)C(C)C)C(C)C)[C@@H](C)CC (Octanoyl-KWKLFKKIGAVLKVL-NH2)", "Unit Abbreviation": "%", "metabolised at 6 h": 70.2}
{"Molecule": "CCCC(=O)N[C@@H](CCCCN)C(=O)N[C@@H](Cc1c[nH]c2ccccc12)C(=O)N[C@@H](CCCCN)C(=O)N[C@@H](CC(C)C)C(=O)N[C@@H](Cc1ccccc1)C(=O)N[C@@H](CCCCN)C(=O)N[C@@H](CCCCN)C(=O)N[C@H](C(=O)NCC(=O)N[C@@H](C)C(=O)N[C@H](C(=O)N[C@@H](CC(C)C)C(=O)N[C@@H](CCCCN)C(=O)N[C@H](C(=O)N[C@@H](CC(C)C)C(N)=O)C(C)C)C(C)C)[C@@H](C)CC (Butyryl-KWKLFKKIGAVLKVL-NH2)", "Unit Abbreviation": "%", "metabolised at 6 h": 100}

----------
target: trypsin (Homo sapiens, UniProt P07477+P07478+P35030); experiment: Stability of compound assessed as trypsin (unknown origin)-mediated compound degradation measured upto 6 hrs by RP-HPLC analysis; format: ADME, protein assay; details: trypsin (enzyme solution), read-out: Drug degradation
Measured Attribute: metabolised at 6 h (%)

{"Substance": "H-KWKLFKKIGAVLKVL-NH2", "Measurement": 100}
